Experimental target: human plasma kallikrein (hPK) (Homo sapiens)
Sequence (P03952 20-638): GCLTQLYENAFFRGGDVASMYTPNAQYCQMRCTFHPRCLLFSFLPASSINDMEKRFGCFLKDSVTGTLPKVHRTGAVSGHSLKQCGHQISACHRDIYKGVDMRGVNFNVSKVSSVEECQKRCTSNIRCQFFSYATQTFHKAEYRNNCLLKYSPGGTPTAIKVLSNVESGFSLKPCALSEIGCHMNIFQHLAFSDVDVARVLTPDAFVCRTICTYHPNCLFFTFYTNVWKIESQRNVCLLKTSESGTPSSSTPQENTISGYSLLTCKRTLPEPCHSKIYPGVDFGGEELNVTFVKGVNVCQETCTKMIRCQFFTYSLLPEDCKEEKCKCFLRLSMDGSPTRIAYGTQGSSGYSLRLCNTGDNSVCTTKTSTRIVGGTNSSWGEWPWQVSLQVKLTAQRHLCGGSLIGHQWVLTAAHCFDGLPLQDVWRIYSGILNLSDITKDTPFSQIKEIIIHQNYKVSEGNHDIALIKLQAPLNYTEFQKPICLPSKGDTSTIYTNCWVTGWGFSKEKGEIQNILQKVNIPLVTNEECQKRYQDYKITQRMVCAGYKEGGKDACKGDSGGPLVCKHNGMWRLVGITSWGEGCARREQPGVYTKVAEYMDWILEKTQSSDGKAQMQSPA
Protocol details: Enzyme inhibition assay, human plasma kallikrein
Run parameters: versus Ac-06-34-18(TMB)-NH2
// no (0) strictly below 20 fold in fold reduction in affinity to kallikrein compared to wildtype peptide; yes (1) otherwise

Molecule	Experimental target	Label class
CC(=O)N[C@H]1CSCc2cc3cc(c2)CSC[C@H](NC(=O)[C@H](CCCNC(=N)N)NC(=O)[C@H](C)NC(=O)[C@@H]2CCCN2C(=O)[C@@H](Cc2c[nH]c4ccccc24)NC(=O)[C@H](CO)NC1=O)C(=O)N[C@@H](CC(C)C)C(=O)N[C@@H](Cc1c[nH]cn1)C(=O)N[C@@H](CCC(N)=O)C(=O)N[C@@H](CC(=O)O)C(=O)N[C@@H](CC(C)C)C(=O)N[C@H](C(N)=O)CSC3 [Ac-(06-34-18) D-Trp2]	human plasma kallikrein (hPK) (Homo sapiens)	yes (1)
CC(=O)N[C@H]1CSCc2cc3cc(c2)CSC[C@H](NC(=O)[C@H](Cc2ccc(NC(=N)N)cc2)NC(=O)[C@H](C)NC(=O)[C@@H]2CCCN2C(=O)[C@H](Cc2c[nH]c4ccccc24)NC(=O)[C@H](CO)NC1=O)C(=O)N[C@@H](CC(C)C)C(=O)N[C@@H](Cc1c[nH]cn1)C(=O)N[C@@H](CCC(N)=O)C(=O)N[C@@H](CC(=O)O)C(=O)N[C@@H](CC(C)C)C(=O)N[C@H](C(N)=O)CSC3 [Ac-(06-34-18) 4GuanPhe5]	human plasma kallikrein (hPK) (Homo sapiens)	no (0)
CC(=O)N[C@H]1CSCc2cc3cc(c2)CSC[C@H](NC(=O)[C@@H](CCCNC(=N)N)NC(=O)[C@H](C)NC(=O)[C@@H]2CCCN2C(=O)[C@H](Cc2c[nH]c4ccccc24)NC(=O)[C@H](CO)NC1=O)C(=O)N[C@@H](CC(C)C)C(=O)N[C@@H](Cc1c[nH]cn1)C(=O)N[C@@H](CCC(N)=O)C(=O)N[C@@H](CC(=O)O)C(=O)N[C@@H](CC(C)C)C(=O)N[C@H](C(N)=O)CSC3 [Ac-(06-34-18) D-Arg5]	human plasma kallikrein (hPK) (Homo sapiens)	yes (1)
CC(=O)N[C@H]1CSCc2cc3cc(c2)CSC[C@H](NC(=O)[C@H](CCCNC(=N)N)NC(=O)[C@@H](C)NC(=O)[C@@H]2CCCN2C(=O)[C@H](Cc2c[nH]c4ccccc24)NC(=O)[C@H](CO)NC1=O)C(=O)N[C@@H](CC(C)C)C(=O)N[C@@H](Cc1c[nH]cn1)C(=O)N[C@@H](CCC(N)=O)C(=O)N[C@@H](CC(=O)O)C(=O)N[C@@H](CC(C)C)C(=O)N[C@H](C(N)=O)CSC3 [Ac-(06-34-18) D-Ala4]	human plasma kallikrein (hPK) (Homo sapiens)	yes (1)
